Item-by-item account of OD450
- target_or_system: T1, monkey CD22 protein (ACROBiosystems, catalog number SI2-R52Ha) (monkey, UniProt F6W485 20-688)
- T1 construct: commercial protein; also called monkey CD22-ECD; monkey CD22-ECD-His
- T1 sequence: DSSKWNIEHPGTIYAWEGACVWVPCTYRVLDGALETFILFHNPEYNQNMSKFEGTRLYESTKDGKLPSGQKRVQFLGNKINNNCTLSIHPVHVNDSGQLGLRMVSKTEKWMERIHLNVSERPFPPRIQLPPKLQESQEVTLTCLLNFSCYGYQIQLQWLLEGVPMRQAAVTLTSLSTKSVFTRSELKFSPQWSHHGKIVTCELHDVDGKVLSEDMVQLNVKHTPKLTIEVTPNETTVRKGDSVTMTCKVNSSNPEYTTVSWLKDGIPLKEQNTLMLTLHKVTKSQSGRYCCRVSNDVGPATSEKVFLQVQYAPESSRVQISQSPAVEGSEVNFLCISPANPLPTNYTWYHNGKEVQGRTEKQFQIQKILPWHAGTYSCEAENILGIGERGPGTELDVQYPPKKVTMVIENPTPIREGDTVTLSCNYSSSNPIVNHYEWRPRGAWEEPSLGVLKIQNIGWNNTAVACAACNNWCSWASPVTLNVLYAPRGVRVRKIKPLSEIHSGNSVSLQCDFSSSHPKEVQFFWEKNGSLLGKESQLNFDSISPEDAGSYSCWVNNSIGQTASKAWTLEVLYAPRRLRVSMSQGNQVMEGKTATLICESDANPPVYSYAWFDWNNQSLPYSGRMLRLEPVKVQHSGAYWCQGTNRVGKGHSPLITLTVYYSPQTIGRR
- protocol: ELISA, coated monkey CD22 protein, antibody 0.0001 nM
Field: numeric (OD450). Do not append units.

Consider the worked cases shown below.
1. F1.267.9 (antibody, human IgG1, kappa, V domains shown, human-murine chimeric IgG1 kappa; VL name legible) VH: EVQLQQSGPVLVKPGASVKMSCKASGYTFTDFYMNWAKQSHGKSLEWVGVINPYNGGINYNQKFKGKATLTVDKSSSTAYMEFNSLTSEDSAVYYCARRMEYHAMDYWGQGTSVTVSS VL: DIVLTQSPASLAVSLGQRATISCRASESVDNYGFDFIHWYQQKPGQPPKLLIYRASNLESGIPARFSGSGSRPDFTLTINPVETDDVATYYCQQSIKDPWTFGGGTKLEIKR : 0.07
2. F1.172.13 (antibody, human IgG1, kappa, V domains shown, human-murine chimeric IgG1 kappa) VH: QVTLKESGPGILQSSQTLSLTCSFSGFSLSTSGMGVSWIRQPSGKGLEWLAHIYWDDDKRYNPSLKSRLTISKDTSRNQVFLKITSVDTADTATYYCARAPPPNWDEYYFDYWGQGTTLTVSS VL: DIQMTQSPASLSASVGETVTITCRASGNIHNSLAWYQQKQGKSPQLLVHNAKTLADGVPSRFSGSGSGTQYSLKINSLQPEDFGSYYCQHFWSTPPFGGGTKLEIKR : 0.18

Now examine the next entry.
Consider the binder F1.120.15 (antibody, human IgG1, kappa, V domains shown, human-murine chimeric IgG1 kappa) VH: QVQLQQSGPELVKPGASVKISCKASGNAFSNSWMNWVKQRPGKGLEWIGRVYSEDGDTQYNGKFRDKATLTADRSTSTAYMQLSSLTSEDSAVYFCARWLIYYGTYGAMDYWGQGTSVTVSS VL: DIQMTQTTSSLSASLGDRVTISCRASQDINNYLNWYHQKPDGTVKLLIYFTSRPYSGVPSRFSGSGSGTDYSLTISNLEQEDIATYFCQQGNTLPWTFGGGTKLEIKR and give its recorded OD450.
0.07

These entries and their values trace back to patent US20240084003A1.
